# Experimental system: T1, purified recombinant 161P2F10B extracellular domain (Tag5-161P2F10B ECD, amino acids 46-875) (human, UniProt O14638 46-875)
# T1 construct: also called full length ECD
# Procedure text: SPR (BIAcore), MAb captured on chip, recombinant 161P2F10B injected, 1:1 fit;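 further: purified human MAbs immobilised by capture on a CM5 chip surface, about 150 RU of antibody per cycle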
Value type: Kd (nM)
Report only the number, with the unit nM understood.

Kd lookup needed for Ha16-1(3,5)18 (antibody, IgG1, V domains shown, The limits of VH (1-114) and VL (1-108) are stated in CLM-00001; the entries also hold a portion of the constant region; also called Ha16-1(3, 5)18.1; ATCC PTA-7452) VH: GPGLVKPSETLSLTCTVPGGSIRSYFWSWIRQPAGKGLEWIGRFYFSGSTNYNPSLKSRVTMSVDTSKNQFSLKLSSVTAADTAVYYCARDYGDHYYYYGMDVWGQGTTVTVSS VL: VLTQPPSVSAAPGQKVTISCSGSSSNIGNNYVSWYQQFPGTAPKFLIYDNNKRSSGIPDRFSGSKSGTSATLGITGLQTGDEADYYCGTWDSSLSAVIFGGGTKLTVL , thanks.
28

Same thing, different binder: H16-9.44 (antibody, V domains shown, also called Ha16-9.44) VH: LSLTCTVSGGSISSYYWSWIRQSAGKGLEWIGRIYTGVSTNYNPSLKSRVTMSVDTSKNQFSLKLSSVTAADTAVYYCARDYYDSSGYYPFDYWGQGTLVTVSS VL: DIQMTQSPSSLSASVGDRVTISCRASQGISNYLAWFQQKPGKAPKSLIYAASSLENGVPSKFSGSGSGTDFTLTISSLQPEDFATYYCQQYNSSPFTFGPGTKVDIRR
0.76

Same thing, different binder: H16-9.10 (antibody, V domains shown, also called Ha16-9.10) VH: LLESGPGLVKPSQTLSLTCAISGDSVSSNSAAWNWIRQSPSRGLEWLGRTYYRSKWYNAYAVSVKSRMTINPDTSKNQFSLQLNSVTPEDTAVYYCAREAGGWFDPWGQGTLVTVSS VL: DIQMTQSPSSVSASVGDRVTITCRASQGIRSWLAWYQQKPGKAPKLLIYAASSLQSGVPSRFSGSGSGTDFTLTISSLQPEDFATYYCQQANSFPPTFGGGTKVEIKR
7.4
